- MEASURED TARGET: T1, human Aβ (1-40) peptide (human)
- T1 construct: also called Aβ1-40 fibers
- ASSAY NOTES: SPR, immobilized fibers;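 further: biacore SPR using in vitro grown Aβ1-40 or Aβ1-42 fibrils immobilized on the chip with Fab analytes, KD from koff/kon fits or equilibrium isotherms based on total Fab concentration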
OBSERVED PROPERTY: pKd
Answers are plain numbers, as −log10 of the molar value.

Consider the reported pKd for these binders:
BINDER	pKd
MS-Roche #7.9.H7 Fab (Fab, V domains shown, also called MSR 7.9H7) VH: QVQLVESGGGLVQPGGSLRLSCAASGFTFSSYAMSWVRQAPGKGLEWVSAINASGTRTYYADSVKGRFTISRDNSKNTLYLQMNSLRAEDTAVYYCARGKGNTHKPYGYVRYFDVWGQGTLVTVSS VL: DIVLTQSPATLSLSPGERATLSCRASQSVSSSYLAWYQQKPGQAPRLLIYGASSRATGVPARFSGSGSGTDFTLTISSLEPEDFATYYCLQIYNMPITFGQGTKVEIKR	9.00
MS-Roche #7.9.H5 Fab (Fab, V domains shown, assembled) VH: QVQLVESGGGLVQPGGSLRLSCAASGFTFSSYAMSWVRQAPGKGLEWVSAINHAGNKKYYADSVKGRFTISRDNSKNTLYLQMNSLRAEDTAVYYCARGKGNTHKPYGYVRYFDVWGQGTLVTVSS VL: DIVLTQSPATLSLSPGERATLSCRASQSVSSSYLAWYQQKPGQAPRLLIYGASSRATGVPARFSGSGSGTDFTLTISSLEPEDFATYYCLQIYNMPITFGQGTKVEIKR	8.77

Would you kindly look at the next entry?
Item MS-Roche #7.12.L3 Fab (Fab, V domains shown) VH: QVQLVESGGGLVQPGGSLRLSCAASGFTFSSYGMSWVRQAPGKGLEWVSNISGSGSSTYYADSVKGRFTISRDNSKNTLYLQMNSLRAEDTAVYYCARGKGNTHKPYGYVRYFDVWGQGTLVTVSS VL: DIVLTQSPATLSLSPGERATLSCRASQFVRRGFLAWYQQKPGQAPRLLISGSSNRATGVPARFSGSGSGTDFTLTISSLEPEDFAVYYCLQLYNIPNTFGQGTKVEIKR has what recorded pKd?
9.10
